Listing of recorded IL-2 release in HuT78/P3Z, IC50 by entry.
# Study Target: P3Z chimeric PD-1 receptor (human)
# Sequence (chain, as listed by the source mutant limits assumed): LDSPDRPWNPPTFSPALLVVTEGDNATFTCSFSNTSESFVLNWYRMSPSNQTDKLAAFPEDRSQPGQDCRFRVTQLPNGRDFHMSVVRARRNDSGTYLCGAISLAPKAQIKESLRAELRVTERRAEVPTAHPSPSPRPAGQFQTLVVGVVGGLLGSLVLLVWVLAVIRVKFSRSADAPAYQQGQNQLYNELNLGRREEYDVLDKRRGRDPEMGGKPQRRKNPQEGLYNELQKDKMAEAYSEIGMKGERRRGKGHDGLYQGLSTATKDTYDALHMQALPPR
# Experiment Notes: cell-based or functional assay
Report the figure in µg/mL without appending any unit label.

>  <Binder>
hu326-2 F95Y (antibody, V domains shown, mAb; constant regions not restated (hu326-1 is IgG2 / kappa); Forward mutation to human) VH: QVQLVQSGSELKKPGASVKVSCKASGYTFTNYGMNWVRQAPGQGLEWMGWINNNNGEPTYAQGFRGRFVFSLDTSASTAYLQISSLKTEDTAVYYCARDVMDYWGQGTTVTVSS VL: DIVLTQSPASLAVSPGQRATITCRASESVDNYGYSFMHWYQQKPGQPPKLLIYRASNLESGVPARFSGSGSRTDFTLTINPVEANDTANYYCQQSKEYPTFGGGTKVEIK

>  <Quantity>
IL-2 release in HuT78/P3Z, IC50

>  <Unit Name>
µg/mL

>  <Value Measured>
0.166

$$$$

// query IL-2 release in HuT78/P3Z, IC50 value for entry hu326-2 T88N (antibody, V domains shown, mAb; constant regions not restated (hu326-1 is IgG2 / kappa); Back mutation to murine) VH: QVQLVQSGSELKKPGASVKVSCKASGYTFTNYGMNWVRQAPGQGLEWMGWINNNNGEPTYAQGFRGRFVFSLDTSASTAYLQISSLKNEDTAVYFCARDVMDYWGQGTTVTVSS VL: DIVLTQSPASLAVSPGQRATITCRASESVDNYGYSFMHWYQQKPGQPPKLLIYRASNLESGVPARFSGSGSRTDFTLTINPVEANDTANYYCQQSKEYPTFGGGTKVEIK
0.102

// query IL-2 release in HuT78/P3Z, IC50 value for entry hu326-1 (antibody, IgG2, V domains shown, not shown: a dimerising Fc or GST, domain: Ig kappa C-region; Initial humanized version, IgG2 / kappa) VH: QVQLVQSGSELKKPGASVKVSCKASGYTFTNYGMNWVRQAPGQGLEWMGWINNNNGEPTYAQGFRGRFVFSLDTSASTAYLQISSLKTEDTAVYFCARDVMDYWGQGTTVTVSS VL: DIVLTQSPASLAVSPGQRATITCRASESVDNYGYSFMHWYQQKPGQPPKLLIYRASNLESGVPARFSGSGSRTDFTLTINPVEANDTANYYCQQSKEYPTFGGGTKVEIKR
0.087
